Tested on: 922993-354-T-J3-PDC complex spheroid viability
Assay: Anticancer human tumor 922993-354-T-J3-PDC patient-derived endometrial carcinoma cell line growth inhibition [POLQ]
Conditions: second compound 3.16 µM; first compound 1 µM; stronger effect = lower value
Quantity Name: viability, T/C

As a guide, the following entries are already answered.
Compound	viability, T/C
O=c1[nH]cc(F)c(=O)[nH]1 + Cc1cccc(N(C)C(=O)C2C(O)CCN2c2nc(C)cc(C(F)(F)F)c2C#N)c1	90.5%
O=c1[nH]cc(F)c(=O)[nH]1 + Nc1ccc(C#CCN(C(=O)Cc2ncc(C(F)(F)F)cc2C(F)(F)F)c2ccc(F)cc2)nn1	102%
COc1cc(C2c3cc4c(cc3C(OC3OC5COC(C)OC5C(O)C3O)C3COC(=O)C23)OCO4)cc(OC)c1O (stereo not given) + Cc1cccc(N(C)C(=O)C2C(O)CCN2c2nc(C)cc(C(F)(F)F)c2C#N)c1	86%
COc1cccc2c1C(=O)c1c(O)c3c(c(O)c1C2=O)CC(O)(C(=O)CO)CC3OC1CC(N)C(O)C(C)O1 (stereo not given) + COC1C(OC(N)=O)C(O)C(Oc2ccc3c(O)c(NC(=O)c4ccc(O)c(CC=C(C)C)c4)c(=O)oc3c2C)OC1(C)C	44.7%

Then this compound:
Enquiry: Reported viability, T/C for O=C(Nc1ccc(O)c(NS(=O)(=O)c2ccc(F)cc2)c1)c1ccc(-c2ccccc2)cc1 + COC1C(OC(N)=O)C(O)C(Oc2ccc3c(O)c(NC(=O)c4ccc(O)c(CC=C(C)C)c4)c(=O)oc3c2C)OC1(C)C : what is it?
Return: 90.8%

* * *

Each item that follows carries a reported pIC50.
Tested on: 922993-354-T-J3-PDC complex spheroid viability
Test: Anticancer human tumor 922993-354-T-J3-PDC cell line growth inhibition [POLQ];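 also: spheroids exposed to the agents for one week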
Conditions: curve of first compound; second compound 3.16 µM
# pIC50 = -log10(concentration in molar units)

Molecule	pIC50
CC1COCCN1c1cc(C2(S(C)(=N)=O)CC2)nc(-c2ccnc3[nH]ccc23)n1 (stereo not given) + COC1C(OC(N)=O)C(O)C(Oc2ccc3c(O)c(NC(=O)c4ccc(O)c(CC=C(C)C)c4)c(=O)oc3c2C)OC1(C)C	5.08

Could you now consider this next molecule?
Enquiry: Quick one: pIC50 of COc1cccc(OCCCN)c1-c1cc(Nc2cnc(C#N)cn2)n[nH]1 + Cc1cccc(N(C)C(=O)C2C(O)CCN2c2nc(C)cc(C(F)(F)F)c2C#N)c1 ?
Return: 6.36

* * *

Tested on: 922993-354-T-J3-PDC complex spheroid viability
Test: Anticancer human tumor 922993-354-T-J3-PDC cell line growth inhibition [POLQ];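 also: spheroids exposed to the agents for one week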;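 as to viability, T/C: 100% = DMSO vehicle control wells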
Settings: second compound 10 µM; first compound 0.316 µM; stronger effect = lower value
Quantity Name: viability, T/C (%)
I only need the number, in %, no unit after it.

Would you please look over these solved cases?
Molecule	viability, T/C (%)
CC1COCCN1c1cc(-c2ccnn2C)c2ccnc(-c3ccn[nH]3)c2n1 (stereo unspecified) + Cc1cccc(N(C)C(=O)C2C(O)CCN2c2nc(C)cc(C(F)(F)F)c2C#N)c1	28.7
CC1COCCN1c1cc(C2(S(C)(=N)=O)CC2)nc(-c2ccnc3[nH]ccc23)n1 (stereo unspecified) + Cc1cccc(N(C)C(=O)C2C(O)CCN2c2nc(C)cc(C(F)(F)F)c2C#N)c1	96.8
CCc1cc2c(N3CCc4c(cc(Cn5ccnc5)cc4-c4cn(C)nc4C(F)(F)F)C3=O)ccnc2c(OC)n1 + COC1C(OC(N)=O)C(O)C(Oc2ccc3c(O)c(NC(=O)c4ccc(O)c(CC=C(C)C)c4)c(=O)oc3c2C)OC1(C)C	105
Nc1ccn(C2OC(CO)C(O)C2(F)F)c(=O)n1 (stereo unspecified) + COC1C(OC(N)=O)C(O)C(Oc2ccc3c(O)c(NC(=O)c4ccc(O)c(CC=C(C)C)c4)c(=O)oc3c2C)OC1(C)C	9.42
O=C(c1cc(Cc2n[nH]c(=O)c3ccccc23)ccc1F)N1CCN(C(=O)C2CC2)CC1 + Nc1ccc(C#CCN(C(=O)Cc2ncc(C(F)(F)F)cc2C(F)(F)F)c2ccc(F)cc2)nn1	88.8
O=C(c1cc(Cc2n[nH]c(=O)c3ccccc23)ccc1F)N1CCN(C(=O)C2CC2)CC1 + Cc1cccc(N(C)C(=O)C2C(O)CCN2c2nc(C)cc(C(F)(F)F)c2C#N)c1	112
Nc1ccn(C2OC(CO)C(O)C2(F)F)c(=O)n1 (stereo unspecified) + Nc1ccc(C#CCN(C(=O)Cc2ncc(C(F)(F)F)cc2C(F)(F)F)c2ccc(F)cc2)nn1	21.9
Nc1ccn(C2OC(CO)C(O)C2(F)F)c(=O)n1 (stereo unspecified) + Cc1cccc(N(C)C(=O)C2C(O)CCN2c2nc(C)cc(C(F)(F)F)c2C#N)c1	7.1

Enquiry: What value of measured viability, T/C is listed for CC1COCCN1c1cc(C2(O)CC3CCC(C2)O3)c2cnn(-c3ccn[nH]3)c2n1 (stereo unspecified) + Cc1cccc(N(C)C(=O)C2C(O)CCN2c2nc(C)cc(C(F)(F)F)c2C#N)c1 ?
Return: 32.5

Enquiry: Which viability, T/C reading was recorded for the molecule CCc1c2c(nc3ccc(O)cc13)-c1cc3c(c(=O)n1C2)COC(=O)[C@]3(O)CC + Nc1ccc(C#CCN(C(=O)Cc2ncc(C(F)(F)F)cc2C(F)(F)F)c2ccc(F)cc2)nn1 ?
Return: 20.1

Enquiry: Quick check: viability, T/C of CC1COCCN1c1cc(C2(S(C)(=N)=O)CC2)nc(-c2ccnc3[nH]ccc23)n1 (stereo unspecified) + COC1C(OC(N)=O)C(O)C(Oc2ccc3c(O)c(NC(=O)c4ccc(O)c(CC=C(C)C)c4)c(=O)oc3c2C)OC1(C)C ?
Return: 96

Enquiry: Find the recorded viability, T/C belonging to C=CC(=O)N1CCN(c2nc(=O)n(-c3c(C)ccnc3C(C)C)c3nc(-c4c(O)cccc4F)c(F)cc23)C(C)C1 (stereo unspecified) + COC1C(OC(N)=O)C(O)C(Oc2ccc3c(O)c(NC(=O)c4ccc(O)c(CC=C(C)C)c4)c(=O)oc3c2C)OC1(C)C and report it.
Return: 89.8

Enquiry: Would you kindly share the measured viability, T/C for C=CC(=O)N1CCN(c2nc(=O)n(-c3c(C)ccnc3C(C)C)c3nc(-c4c(O)cccc4F)c(F)cc23)C(C)C1 (stereo unspecified) + Cc1cccc(N(C)C(=O)C2C(O)CCN2c2nc(C)cc(C(F)(F)F)c2C#N)c1 ?
Return: 97.9
